- method_description: Solubility of Compound I sodium salt forms in solvents and binary solvent systems
- Assay type: physicochemical
- details: organic solvent or mixture, thermodynamic from solid; Acetone/water, 94:6 v/v, ambient; read-out: Solubility

{"molecule": "O=C(O)c1cc(-c2ccc(OC3CC3)c(Cl)c2)ncn1 [Compound I sodium Form B]", "solubility": "< 2000 µg/mL"}

---

- method_description: Solubility of Compound I sodium salt forms in solvents and binary solvent systems
- Assay type: physicochemical
- details: organic solvent or mixture, thermodynamic from solid; Heptane, 60° C.; read-out: Solubility
- Procedure: A weighed sample was treated with aliquots of the test solvent at room temperature. The mixture was sonicated between additions to facilitate dissolution. Complete dissolution of the test material was determined by visual inspection. Solubility was estimated based on the total solvent used to provide complete dissolution. […] The actual solubility may be greater than the value calculated because of the use of solvent aliquots that were too large or due to a slow rate of dissolution. […]

{"compound": "O=C(O)c1cc(-c2ccc(OC3CC3)c(Cl)c2)ncn1 [Compound I sodium Pattern A]", "solubility": "< 1200 µg/mL"}

---

- method_description: Solubility of Compound I sodium salt forms in solvents and binary solvent systems
- Assay type: physicochemical
- details: organic solvent or mixture, thermodynamic from solid; DCM, 60° C.; read-out: Solubility
readout_kind: solubility

{"molecule": "O=C(O)c1cc(-c2ccc(OC3CC3)c(Cl)c2)ncn1 [Compound I sodium Pattern A]", "readout_kind": "solubility", "result": "< 1300 µg/mL"}

---

- method_description: Solubility of Compound I sodium salt forms in solvents and binary solvent systems
- Assay type: physicochemical
- details: organic solvent or mixture, thermodynamic from solid; Isopropanol/water, 91:9 v/v, ambient; read-out: Solubility

{"compound": "O=C(O)c1cc(-c2ccc(OC3CC3)c(Cl)c2)ncn1 [Compound I sodium Form B]", "solubility": "< 2000 µg/mL"}

---

- method_description: Approximate aqueous solubility of salts/co-crystals (visual, solvent addition method)
- Assay type: physicochemical
- details: water, estimated visually, solvent addition method
readout_kind: solubility

{"compound": "O=C(O)c1cc(-c2ccc(OC3CC3)c(Cl)c2)ncn1 [Compound I sodium Form B]", "result": "4 mg/mL"}
{"compound": "O=C(O)c1cc(-c2ccc(OC3CC3)c(Cl)c2)ncn1 [Compound I diethylamine Material A]", "result": "~30 mg/mL"}
{"compound": "O=C(O)c1cc(-c2ccc(OC3CC3)c(Cl)c2)ncn1 [Compound I tromethamine Form A]", "result": "~134 mg/mL"}

---

- method_description: Solubility of Compound I sodium salt forms in solvents and binary solvent systems
- Type: physicochemical
- details: organic solvent or mixture, thermodynamic from solid; MEK, 60° C.; read-out: Solubility

{"compound": "O=C(O)c1cc(-c2ccc(OC3CC3)c(Cl)c2)ncn1 [Compound I sodium Pattern A]", "solubility": "< 1300 µg/mL"}

---

- method_description: Solubility of Compound I sodium salt forms in solvents and binary solvent systems
- Type: physicochemical
- details: organic solvent or mixture, thermodynamic from solid; EtOH, 60° C.; read-out: Solubility
readout_kind: solubility

{"compound": "O=C(O)c1cc(-c2ccc(OC3CC3)c(Cl)c2)ncn1 [Compound I sodium Pattern A]", "result": "< 1300 µg/mL"}

---

- method_description: Solubility of Compound I sodium salt forms in solvents and binary solvent systems
- Type: physicochemical
- details: organic solvent or mixture, thermodynamic from solid; MeOH, 60° C.; read-out: Solubility

{"molecule": "O=C(O)c1cc(-c2ccc(OC3CC3)c(Cl)c2)ncn1 [Compound I sodium Pattern A]", "solubility": "5000 to 6700 µg/mL"}

---

- method_description: Solubility of Compound I sodium salt forms in solvents and binary solvent systems
- Assay type: physicochemical
- details: organic solvent or mixture, thermodynamic from solid; 2-MeTHF, 60° C.; read-out: Solubility

{"compound": "O=C(O)c1cc(-c2ccc(OC3CC3)c(Cl)c2)ncn1 [Compound I sodium Pattern A]", "solubility": "< 1100 µg/mL"}

---

# reported DVS weight loss; entries follow
- method_description: Dynamic vapor sorption/desorption (DVS)
- Assay type: physicochemical
- details: from about 95% to about 5% RH
readout_kind: DVS weight loss

{"compound": "O=C(O)c1cc(-c2ccc(OC3CC3)c(Cl)c2)ncn1 [Compound I tromethamine Form A]", "readout_kind": "DVS weight loss", "result": "~0.26%"}
{"compound": "O=C(O)c1cc(-c2ccc(OC3CC3)c(Cl)c2)ncn1 [Compound I diethylamine Material A]", "readout_kind": "DVS weight loss", "result": "~1.92%"}
{"compound": "O=C(O)c1cc(-c2ccc(OC3CC3)c(Cl)c2)ncn1 [Compound I sodium Form B]", "readout_kind": "DVS weight loss", "result": "~5.14%"}
{"compound": "O=C(O)c1cc(-c2ccc(OC3CC3)c(Cl)c2)ncn1 [Compound I diethanolamine Form A]", "readout_kind": "DVS weight loss", "result": "~0.47%"}

---

- method_description: Solubility of Compound I sodium salt forms in solvents and binary solvent systems
- Format: physicochemical
- details: organic solvent or mixture, thermodynamic from solid; Acetonitrile, ambient; read-out: Solubility

{"compound": "O=C(O)c1cc(-c2ccc(OC3CC3)c(Cl)c2)ncn1 [Compound I sodium Form B]", "solubility": "< 2000 µg/mL"}

---

- method_description: Solubility of Compound I sodium salt forms in solvents and binary solvent systems
- Format: physicochemical
- details: thermodynamic from solid; Water, 60° C.; read-out: Solubility

{"molecule": "O=C(O)c1cc(-c2ccc(OC3CC3)c(Cl)c2)ncn1 [Compound I sodium Pattern A]", "solubility": "10 to 20 mg/mL"}

---

- method_description: Solubility of Compound I sodium salt forms in solvents and binary solvent systems
- Assay type: physicochemical
- details: organic solvent or mixture, thermodynamic from solid; MTBE, 60° C.; read-out: Solubility
readout_kind: solubility

{"compound": "O=C(O)c1cc(-c2ccc(OC3CC3)c(Cl)c2)ncn1 [Compound I sodium Pattern A]", "readout_kind": "solubility", "result": "< 1100 µg/mL"}

---

- method_description: Solubility of Compound I sodium salt forms in solvents and binary solvent systems
- Assay type: physicochemical
- details: organic solvent or mixture, thermodynamic from solid; Acetone, 60° C.; read-out: Solubility

{"compound": "O=C(O)c1cc(-c2ccc(OC3CC3)c(Cl)c2)ncn1 [Compound I sodium Pattern A]", "solubility": "< 1300 µg/mL"}

---

- method_description: Solubility of Compound I sodium salt forms in solvents and binary solvent systems
- Type: physicochemical
- details: organic solvent or mixture, thermodynamic from solid; IPAc, 60° C.; read-out: Solubility

{"molecule": "O=C(O)c1cc(-c2ccc(OC3CC3)c(Cl)c2)ncn1 [Compound I sodium Pattern A]", "solubility": "< 1100 µg/mL"}

---

- method_description: Solubility of Compound I sodium salt forms in solvents and binary solvent systems
- Assay type: physicochemical
- details: organic solvent or mixture, thermodynamic from solid; NMP, 60° C.; read-out: Solubility
- Procedure: A weighed sample was treated with aliquots of the test solvent at room temperature. The mixture was sonicated between additions to facilitate dissolution. Complete dissolution of the test material was determined by visual inspection. Solubility was estimated based on the total solvent used to provide complete dissolution. […] The actual solubility may be greater than the value calculated because of the use of solvent aliquots that were too large or due to a slow rate of dissolution. […]

{"molecule": "O=C(O)c1cc(-c2ccc(OC3CC3)c(Cl)c2)ncn1 [Compound I sodium Pattern A]", "solubility": "10.3 to 20.5 mg/mL"}

---

- method_description: Approximate aqueous solubility of salts/co-crystals (visual, solvent addition method)
- Assay type: physicochemical
- details: water, thermodynamic from solid, estimated visually, solvent addition method, read-out: Solubility

{"molecule": "O=C(O)c1cc(-c2ccc(OC3CC3)c(Cl)c2)ncn1 (racemic)", "solubility": "< 4000 µg/mL"}

---

- method_description: Solubility of Compound I sodium salt forms in solvents and binary solvent systems
- Assay type: physicochemical
- details: organic solvent or mixture, thermodynamic from solid; Acetone, 55° C.; read-out: Solubility

{"molecule": "O=C(O)c1cc(-c2ccc(OC3CC3)c(Cl)c2)ncn1 [Compound I sodium Form B]", "solubility": "< 2000 µg/mL"}

---

- method_description: Solubility of Compound I sodium salt forms in solvents and binary solvent systems
- Format: physicochemical
- details: organic solvent or mixture, thermodynamic from solid; THF, 60° C.; read-out: Solubility
readout_kind: solubility

{"compound": "O=C(O)c1cc(-c2ccc(OC3CC3)c(Cl)c2)ncn1 [Compound I sodium Pattern A]", "readout_kind": "solubility", "result": "< 1300 µg/mL"}

---

- method_description: Solubility of Compound I sodium salt forms in solvents and binary solvent systems
- Format: physicochemical
- details: organic solvent or mixture, thermodynamic from solid; Isopropanol, ambient; read-out: Solubility

{"molecule": "O=C(O)c1cc(-c2ccc(OC3CC3)c(Cl)c2)ncn1 [Compound I sodium Form B]", "solubility": "< 2000 µg/mL"}
